Source of measurements: patent US20170189505A1

# STUDY_SYSTEM: HLA-A*24 (human)
# EXPERIMENT_SUMMARY: UV peptide exchange, anti-b2m ELISA
Entries and their measured peptide exchange yield follow.

BINDER	peptide exchange yield
HYSQELSLLYL [SEQ ID No 158 peptide …]	> 75%
NYYEVHKELF [SEQ ID No 270 peptide …]	50 to 75%
LYLDKATLI [SEQ ID No 198 peptide …]	50 to 75%
KYPVEWAKF [SEQ ID No 289 peptide …]	> 75%
VHIPEVYLI [SEQ ID No 205 peptide …]	50 to 75%

Q: Item IYDDSFIRPVTF [SEQ ID No 180 peptide …] : provide peptide exchange yield
Result: 50 to 75%

Q: Name the recorded peptide exchange yield of the item LYITEPKTI [SEQ ID No 287 peptide …] in your answer.
Result: 50 to 75%

Q: Look up peptide exchange yield of SYALLTYMI [SEQ ID No 192 peptide …] and report it.
Result: > 75%
